# System: SEM cells
# PROCEDURE TEXT: cell viability relative to DMSO control; higher = less cytotoxic
# CONDITION: RPMI 5 mM glucose + 10% FBS; 48 h; 15.4 µM
MEASURE: cell viability (%)
Reply numerically in %, unit not repeated.

Query :: // query cell viability value for entry COC(=O)c1ccc2c(c1)NC(=O)/C2=C(\Nc1ccc(N(C)C(=O)CN2CCN(C)CC2)cc1)c1ccccc1
Result :: 36.7

Query :: Item under review: Cc1csc(-c2nnc(Nc3ccc(Oc4ncccc4-c4ccnc(N)n4)cc3)c3ccccc23)c1 . Reported cell viability?
Result :: 18.7

Query :: Fill blank: measured cell viability of the molecule CC(N[C@H]1CCCC[C@@H]1NC(=O)c1ccc(Cl)cc1)c1cccc2ccccc12 (some centres undefined) is ____.
Result :: 138

Query :: # lookup: cell viability of CNc1nc(Nc2cnn([C@H]3CCN(C4COC4)C[C@@H]3F)c2Cl)ncc1C(F)(F)F
Result :: 16.1

====

# Test system: SEM cells
# PROCEDURE TEXT: AUC of viability dose-response curve (% viability x log10 dose units); higher = less sensitive
# CONDITION: RPMI 5 mM glucose + 10% dialyzed FBS; 48 h
Please go through the items and note down their AUC of viability dose-response curve.
I only need the number, thanks.

Query :: Suppose we examine the compound CN1\C=N/C2=CC=C(NC3=CC(=CC=C3C)NC(=O)C4=CC(=CC=C4)C(C)(C)C#N)C=C2C1=O ; what AUC of viability dose-response curve value has been reported?
Result :: 433

Query :: Return reported AUC of viability dose-response curve; argument: COC1=C(OCCCN2CCOCC2)C=C3N=CC=C(OC4=CC=C(C=C4F)\C5=C\N=C(\NC6=CC=C(F)C=C6)N(C)C5=O)C3=C1
Result :: 258

Query :: Fill in the blank: the reported AUC of viability dose-response curve of OCC(O)C(O)C(O)CO (centres undefined) is ____.
Result :: 402

Query :: Looking for the measured AUC of viability dose-response curve of COC1=CC=C(C(=C1)OC(C)C)C/2=N/[C@@H]([C@@H](N2C(=O)N3CCNC(=O)C3)C4=CC=C(Cl)C=C4)C5=CC=C(Cl)C=C5 , can you help?
Result :: 253

Query :: Using the record for C[C@@H](CN1CC(=O)NC(=O)C1)N1CC(=O)NC(=O)C1 , report its AUC of viability dose-response curve.
Result :: 198

Query :: # AUC of viability dose-response curve lookup, item Cc1ccccc1C(=O)Nc1ccc(C(=O)N2CCCC(O)c3cc(Cl)ccc32)c(C)c1 (centres undefined)
Result :: 446

Query :: Report AUC of viability dose-response curve for Nc1ccc([S+](=O)([O-])Nc2ccnn2-c2ccccc2)cc1 please.
Result :: 440

Query :: Item CCCCCNC(=O)N1CCC(CN(Cc2ccc(Cl)cc2)Cc2ccc([N+](=O)[O-])s2)C1 (centres undefined) has what recorded AUC of viability dose-response curve?
Result :: 456

Query :: Which measured AUC of viability dose-response curve value corresponds to O=P(O)(O)C(O)(Cn1ccnc1)P(=O)(O)O ?
Result :: 424

====

# System: SEM cells
# PROCEDURE TEXT: cell viability relative to DMSO control; higher = less cytotoxic
# CONDITION: RPMI 5 mM glucose + 10% FBS; 48 h; 0.19 µM
MEASURE: cell viability (%)
Answer with a number only, understood to be in %.

Query :: What does the data say about its cell viability? Entry: CCOC(=O)\C1=C\[C@]2(CC)CCCN3CCC4=C([C@H]23)[N]1C5=C4C=CC=C5
Result :: 112

Query :: What does the record list as cell viability for NC(=O)c1ccc(N(C(N)=O)c2c(F)cccc2F)nc1-c1ccc(F)cc1F ?
Result :: 95

Query :: Requested read-out: cell viability. Entry: COC(=O)c1ccc2c(c1)NC(=O)/C2=C(\Nc1ccc(N(C)C(=O)CN2CCN(C)CC2)cc1)c1ccccc1
Result :: 60

Query :: What measured cell viability goes with CC(N[C@H]1CCCC[C@@H]1NC(=O)c1ccc(Cl)cc1)c1cccc2ccccc12 (some centres not stated) ?
Result :: 108

Query :: For the compound Cc1ccc([S+](=O)([O-])OCC(=O)Nc2ccc(C(=O)O)c(O)c2)cc1 , what cell viability is on record?
Result :: 130

Query :: Entry Cc1ccccc1C(=O)Nc1ccc(C(=O)N2CCCC(O)c3cc(Cl)ccc32)c(C)c1 (configuration not stated) has what cell viability?
Result :: 127

Query :: I have this compound here, CC[C@H]1OC(=O)[C@H](C)C(=O)[C@H](C)[C@@H](O[C@H]2O[C@H](C)C[C@H](N(C)C)[C@H]2O)[C@](C)(OC)C[C@@H](C)C(=O)[C@H](C)[C@H]2N(CCCCn3cnc(-c4cccnc4)c3)C(=O)O[C@]12C , and I need its recorded cell viability.
Result :: 114

Data credit: the supplement of paper PMC11451515
